Each entry below carries its recorded kcat.
# Substrate: NCCC[C@H](N)C(=O)O
# assay notes: purified protein
# particulars: 50 mM Tris pH 8.5, 20 °C, 20 mM NaCl, carbamoyl phosphate 5 mM
The reply should be a number in s⁻¹, with the unit left off.

Below, 3 proteins whose answers are already recorded.
- protein: "Escherichia coli ornithine transcarbamoylase (OTC) variant Y160S, His-tagged (enzyme, E. coli, Anabolic ornithine transcarbamoylase of E. coli, argI gene, 333-residue subunit; Made by site-directed mutagenesis of the ASKA pCA24N plasmid; 6x-His tag not cleaved; source: E. coli BL21 (DE3) Tuner, purified (HisTrap FF, Superdex 200 SEC)) SGFYHKHFLKLLDFTPAELNSLLQLAAKLKADKKSGKEEAKLTGKNIALIFEKDSTRTRCSFEVAAYDQGARVTYLGPSGSQIGHKESIKDTARVLGRMYDGIQYRGYGQEIVETLAEYASVPVWNGLTNEFHPTQLLADLLTMQEHLPGKAFNEMTLVSAGDARNNMGNSMLEAAALTGLDLRLVAPQACWPEAALVTECRALAQQNGGNITLTEDVAKGVEGADFIYTDVWVSMGEAKEKWAERIALLREYQVNSKMMQLTGNPEVKFLHCLPAFHDDQTTLGKKMAEEFGLHGGMEVTDEVFESAASIVFDQAENRMHTIKAVMVATLSK"
  kcat, s⁻¹: 410
- protein: "OTC (E. coli ornithine transcarbamoylase, argI) (Escherichia coli K-12; E300Q) (protein, full length, uncleaved 6xHis tag, pCA24N ASKA clone, expressed in BL21(DE3) Tuner; homotrimer of 333-residue subunits) SGFYHKHFLKLLDFTPAELNSLLQLAAKLKADKKSGKEEAKLTGKNIALIFEKDSTRTRCSFEVAAYDQGARVTYLGPSGSQIGHKESIKDTARVLGRMYDGIQYRGYGQEIVETLAEYASVPVWNGLTNEFHPTQLLADLLTMQEHLPGKAFNEMTLVYAGDARNNMGNSMLEAAALTGLDLRLVAPQACWPEAALVTECRALAQQNGGNITLTEDVAKGVEGADFIYTDVWVSMGEAKEKWAERIALLREYQVNSKMMQLTGNPEVKFLHCLPAFHDDQTTLGKKMAEEFGLHGGMQVTDEVFESAASIVFDQAENRMHTIKAVMVATLSK"
  kcat, s⁻¹: 5.1
- protein: "Escherichia coli ornithine transcarbamoylase (OTC), wild type, His-tagged (enzyme, E. coli, Anabolic ornithine transcarbamoylase of E. coli, argI gene, 333-residue subunit; Expressed from the ASKA plasmid pCA24N; also called WT OTC; anabolic OTC; source: E. coli BL21 (DE3) Tuner, purified (HisTrap FF, Superdex 200 SEC)) SGFYHKHFLKLLDFTPAELNSLLQLAAKLKADKKSGKEEAKLTGKNIALIFEKDSTRTRCSFEVAAYDQGARVTYLGPSGSQIGHKESIKDTARVLGRMYDGIQYRGYGQEIVETLAEYASVPVWNGLTNEFHPTQLLADLLTMQEHLPGKAFNEMTLVYAGDARNNMGNSMLEAAALTGLDLRLVAPQACWPEAALVTECRALAQQNGGNITLTEDVAKGVEGADFIYTDVWVSMGEAKEKWAERIALLREYQVNSKMMQLTGNPEVKFLHCLPAFHDDQTTLGKKMAEEFGLHGGMEVTDEVFESAASIVFDQAENRMHTIKAVMVATLSK"
  kcat, s⁻¹: 440

Here is the next item to consider.
## Input Reported kcat, protein OTC (E. coli ornithine transcarbamoylase, argI) (Escherichia coli K-12; D141N) (protein, full length, uncleaved 6xHis tag, pCA24N ASKA clone, expressed in BL21(DE3) Tuner; homotrimer of 333-residue subunits) SGFYHKHFLKLLDFTPAELNSLLQLAAKLKADKKSGKEEAKLTGKNIALIFEKDSTRTRCSFEVAAYDQGARVTYLGPSGSQIGHKESIKDTARVLGRMYDGIQYRGYGQEIVETLAEYASVPVWNGLTNEFHPTQLLANLLTMQEHLPGKAFNEMTLVYAGDARNNMGNSMLEAAALTGLDLRLVAPQACWPEAALVTECRALAQQNGGNITLTEDVAKGVEGADFIYTDVWVSMGEAKEKWAERIALLREYQVNSKMMQLTGNPEVKFLHCLPAFHDDQTTLGKKMAEEFGLHGGMEVTDEVFESAASIVFDQAENRMHTIKAVMVATLSK : ____
## Output 460
